- Test system: NCI/ADR-RES
- Protocol text: NCI tumour cell line growth inhibition, 48 h
Activity calls are given as the source filed them. Cut-off read from the data, not from the text of the source: active = GI50 up to about 1.1 µM and inactive = higher. Where a SMILES comes first, the peptide text is derived from it. The star is where a group is joined. Boc = CC(C)(C)OC(=O)*; OBn = c1ccc(CO*)cc1
Outcome codes: active, inactive

COC(=O)C1=NN2c3ccccc3C(=O)OCCC2(C)C1 (centres undefined): inactive
O=Cc1cn(CCCCCCCCCCCCn2cc(C=O)c3ccccc32)c2ccccc12: inactive
CC(O)c1cc2c(s1)C(=O)c1c(C(C)O)csc1C2=O (centres undefined): active
O=C(O)c1cc(/N=N/c2ccc([As](=O)(O)O)cc2)ccc1O: inactive
O=C(O)CC1NC(/C(=C/c2ccccc2O)NC(=O)c2ccccc2)OC1=O (centres undefined): inactive
O=C(O)/C=C/C(=O)N1C/C(=C\c2ccccc2)C(=O)/C(=C/c2ccccc2)C1: inactive
C[C@H]1CC[C@@H]2[C@@H](C)[C@H]3[C@H](C[C@H]4[C@@H]5CC=C6C[C@@H](O)CC[C@]6(C)[C@H]5CC[C@]34C)N2C1: inactive
COc1cc(Oc2nc3ccc(C(F)(F)F)cc3nc2-c2ccccc2)cc(OC)c1OC: inactive
CN(C)c1nncc2[nH]cnc12: inactive
CC(C)(C)OC(=O)NC(Cc1ccccc1)C(=O)NC(Cc1ccccc1)C(=O)NCC(=O)OCc1ccccc1 (stereo not drawn) (Boc-Phe-Phe-Gly-OBn; configuration not given here): inactive
CC[C@]1(Cc2ccc(OC)c(OC)c2)[C@@H]2C[C@@H](C3OCCO3)ON2O[C@H](OC2CCCC2(c2ccccc2)c2ccccc2)[C@@H]1OC(C)=O (some centres undefined): inactive
COc1ccc2nc3c([N+](=O)[O-])ccc(NCCCN(C)C)c3c(N)c2c1: inactive
Cc1cc(NS(=O)(=O)c2ccc(NC(=O)c3ccc4nc5ccccc5c(Nc5ccc(S(=O)(=O)Nc6cc(C)on6)cc5)c4c3)cc2)no1: inactive
CCCCSc1nsc(N(C(=O)c2ccccc2)C(=O)c2ccccc2)n1: inactive
CCC1c2[nH]c3ccccc3c2C[C@H]2C(=O)NC(C)C(=O)N12 (some centres undefined): inactive
C/C(=N\NC1=NCCN1)c1cn(C2=NCCN2)nc1C: inactive
CC1(C)OC(=O)N(c2ccccc2)C12C=Cc1cc([N+](=O)[O-])cc([N+](=O)[O-])c1O2 (centres undefined): inactive
C/C1=C/C2OC(=O)C3(C)C2C(CC2(C)OC1=CC2=O)OC3(O)C(C)C (centres undefined): inactive
CN1C(=O)C2(Cc3cn(C45CC67SSC(CO)(C(=O)N6C4Nc4ccccc45)N(C)C7=O)c4ccccc34)SSC1(CO)C(=O)N2C (centres undefined): active

----------
- System: SF-539
- Protocol text: NCI tumour cell line growth inhibition, 48 h
Activity calls are given as the source filed them. No stated cut-off is given here; in the data, active = GI50 up to about 1.1 µM and inactive = higher.
Measured metric: GI50

CC1=C(C(=O)CC(=O)C(=O)Nc2ccc(Cl)cc2C)Sc2ccccc2N1: > 100 µM (inactive)
CCOC(=O)C(Cc1ccc(N(CCCl)CCCl)cc1)NC(=O)CCCN1C(=O)CN=C(c2ccccc2)c2cc(Cl)ccc21 (centres undefined): 6.37 µM (inactive)
c1cnc2c(c1)-n1cccc1C1(CCOCC1)NN2: > 100 µM (inactive)
CCOC(=O)NC(=O)c1cn(CCN2CCN(C(=O)CNC(=O)CNC(=O)Cn3cc(C(=O)NC(=O)OCC)c(=O)[nH]c3=O)CC2)c(=O)[nH]c1=O: > 100 µM (inactive)
